Property: IC50; scope: individual compounds
- system: BRM (Homo sapiens)
- Sequence (P51531 whole entry): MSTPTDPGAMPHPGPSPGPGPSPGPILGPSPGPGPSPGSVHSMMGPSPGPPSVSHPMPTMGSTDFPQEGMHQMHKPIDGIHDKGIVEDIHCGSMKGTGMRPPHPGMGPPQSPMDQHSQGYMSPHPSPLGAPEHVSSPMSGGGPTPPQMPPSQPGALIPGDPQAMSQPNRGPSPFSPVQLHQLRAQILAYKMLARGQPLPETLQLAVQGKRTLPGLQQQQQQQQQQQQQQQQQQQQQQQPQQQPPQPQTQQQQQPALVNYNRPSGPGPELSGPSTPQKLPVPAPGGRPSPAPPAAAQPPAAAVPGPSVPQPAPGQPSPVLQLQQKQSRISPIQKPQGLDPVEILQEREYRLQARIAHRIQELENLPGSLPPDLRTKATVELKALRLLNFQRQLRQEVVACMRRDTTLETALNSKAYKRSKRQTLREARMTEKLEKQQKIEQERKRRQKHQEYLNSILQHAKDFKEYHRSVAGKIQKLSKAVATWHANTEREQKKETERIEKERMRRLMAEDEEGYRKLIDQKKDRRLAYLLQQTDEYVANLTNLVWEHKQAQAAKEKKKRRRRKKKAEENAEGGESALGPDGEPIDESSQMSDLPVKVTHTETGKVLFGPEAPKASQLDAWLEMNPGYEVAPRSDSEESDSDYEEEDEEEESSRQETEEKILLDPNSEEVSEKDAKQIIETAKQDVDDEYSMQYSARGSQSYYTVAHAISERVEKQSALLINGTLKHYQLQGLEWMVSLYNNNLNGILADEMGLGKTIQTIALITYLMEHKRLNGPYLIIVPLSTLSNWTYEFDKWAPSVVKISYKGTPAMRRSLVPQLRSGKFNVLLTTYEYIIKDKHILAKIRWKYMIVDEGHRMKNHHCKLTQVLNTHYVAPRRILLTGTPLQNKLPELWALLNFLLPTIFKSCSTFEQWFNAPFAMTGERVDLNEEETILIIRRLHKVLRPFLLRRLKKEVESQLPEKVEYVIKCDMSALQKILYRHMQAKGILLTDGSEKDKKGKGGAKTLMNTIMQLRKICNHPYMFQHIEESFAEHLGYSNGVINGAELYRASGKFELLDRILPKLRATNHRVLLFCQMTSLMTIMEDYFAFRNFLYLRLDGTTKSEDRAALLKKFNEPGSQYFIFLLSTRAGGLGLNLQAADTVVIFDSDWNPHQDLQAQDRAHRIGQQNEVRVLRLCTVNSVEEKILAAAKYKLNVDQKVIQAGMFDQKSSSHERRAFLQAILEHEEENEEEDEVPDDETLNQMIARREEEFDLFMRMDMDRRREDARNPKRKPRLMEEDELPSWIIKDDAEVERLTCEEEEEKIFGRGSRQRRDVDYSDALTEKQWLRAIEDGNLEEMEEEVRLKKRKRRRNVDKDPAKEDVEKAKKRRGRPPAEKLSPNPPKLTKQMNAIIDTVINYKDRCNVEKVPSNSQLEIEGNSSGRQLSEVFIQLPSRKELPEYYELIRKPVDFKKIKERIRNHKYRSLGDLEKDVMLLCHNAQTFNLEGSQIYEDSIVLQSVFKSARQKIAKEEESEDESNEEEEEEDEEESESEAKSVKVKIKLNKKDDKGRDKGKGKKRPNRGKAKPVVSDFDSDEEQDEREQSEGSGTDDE
- assay_comment: ATPase catalytic activity assay of BRM (ADP-Glo)
- Assay type: biochemical
- condition_summary: read-out: BRM IC50 (μM)*

Worked cases, IC50 given:
{"compound": "Cc1cc(-c2cccc(-c3csc(NC(=O)CNC(=O)c4ccc5c(c4)[C@@](C)(C#N)CC5)n3)n2)ncn1 [Compound 266]", "IC50": "1 to 5 µM"}
{"compound": "CCc1ccc(C(=O)NCC(=O)Nc2nc(-c3cccc(-c4ccn(C)n4)c3)cs2)cc1C(C)(C)CN [Compound 71]", "IC50": "1 to 5 µM"}
{"compound": "C[C@@H]1CN(c2cccc(-c3csc(NC(=O)CNC(=O)c4ccc5c(c4)[C@H](CO)CC5)n3)n2)C[C@H](C)O1 [Compound 162]", "IC50": "0.1 to 1 µM"}
{"compound": "CC1(F)COCc2ccc(C(=O)NCC(=O)Nc3nc(-c4cccc(N5CCC5)c4)cs3)cc21 (centres unmarked) [Compound 356]", "IC50": "< 0.1 µM"}
{"compound": "CC(C)S(=O)(=O)c1cccc(C(=O)NCC(=O)Nc2nc(-c3cccc(-c4cc(Cl)cc(Cl)c4)c3)cs2)c1 [Compound 30]", "IC50": "0.1 to 1 µM"}
{"compound": "CN1CCc2ccc(-c3csc(NC(=O)CNC(=O)c4ccc5c(c4)[C@@](C)(CO)CC5)n3)cc2C1=O [Compound 258]", "IC50": "0.1 to 1 µM"}

IN: I would be grateful if you could share the reported IC50 for Cc1cc(-c2cccc(-c3csc(NC(=O)CNC(=O)c4ccc5c(c4)[C@@](C)(CO)CCC5)n3)c2)cc(C)n1 [Compound 231] .
OUT: < 0.1 µM

IN: Can you share its IC50? I mean this compound: C[C@@H]1CN(c2cccc(-c3csc(NC(=O)CNC(=O)c4ccc5c(c4)[C@](C)(CO)CN5C)n3)c2)C[C@H](C)O1 [Compound 403]
OUT: 0.1 to 1 µM

IN: Quick one: IC50 of C[C@]1(CO)CCc2ccc(C(=O)NCC(=O)Nc3nc(-c4cccc(-c5cnccn5)n4)cs3)cc21 [Compound 169] ?
OUT: 0.1 to 1 µM

IN: Dear colleague, I am looking for the recorded IC50 of the following compound: CC1(C#N)CCc2ccc(C(=O)NCC(=O)Nc3nc(-c4cccc(-c5ccncc5)c4)cs3)cc21 (single isomer, unassigned) [Compound 88]
OUT: 0.1 to 1 µM

IN: I am curious: what IC50 value has been reported for COc1cccc(-c2csc(NC(=O)CNC(=O)c3ccc4c(c3)[C@](C)(F)COC4)n2)c1 [Compound 312] ?
OUT: < 0.1 µM

IN: Need IC50, item CC1(c2cccc(C(=O)NCC(=O)Nc3nc(-c4cccc(-c5ccncc5)c4)cs3)c2)CCNC1=O (centres unmarked) [Compound 82]
OUT: 0.1 to 1 µM

IN: Report IC50 for C[C@@H]1CN(c2cccc(-c3csc(NC(=O)CNC(=O)c4ccc5c(c4)C4(CC4)COC5)n3)n2)C[C@H](C)O1 [Compound 406] please.
OUT: < 0.1 µM

IN: Data request, read-out IC50, for C[C@@H]1CN(c2cccc(-c3csc(NC(=O)CNC(=O)c4ccc5c(c4)[C@](C)(C#N)COC5)n3)c2)C[C@H](C)O1 [Compound 254]
OUT: < 0.1 µM
